Data origin, for the record: PubChem BioAssay (NCATS)

study-target: Cytochrome P450 2D6 (Homo sapiens)
assay-notes: Cytochrome P450 family 2 subfamily D member 6 (CYP2D6) small molecule antagonists: luciferase biochemical (cell-free) qHTS assay (AID 1645840); note: nearly all actives have a fitted effect of over 55% in size; note: potency is the fitted concentration of half-maximal effect
study-conditions: P450-Glo CYP2D6 enzyme, luciferin luminescence, 1 h; series mostly up to 57.4 µM
Records with an inconclusive call do not appear. Calls of active or inactive are those of the source. Calls come from the whole dose curve; as a rule, active = well fitted inhibition curve with a large enough effect in the repeat runs; inconclusive = weak or mixed curves; inactive = flat fitted curve, though single readings scatter.

| compound | study-target | Potency |
| --- | --- | --- |
| CO/N=C1\CN(c2nc3c(cc2F)c(=O)c(C(=O)O)cn3C2CC2)CC1CN (stereo unspecified) | Cytochrome P450 2D6 (Homo sapiens) | inactive |
| CCCCCCCCCCOCC(O)CN (stereo unspecified) | Cytochrome P450 2D6 (Homo sapiens) | 4.83 µM (active) |
| C[N+]1(CCCCC[N+]2(C)CCCC2)CCCC1 | Cytochrome P450 2D6 (Homo sapiens) | inactive |
| C[C@]12CCC(=O)C=C1CC[C@H]1[C@@H]3CC[C@](O)(C(=O)CO)[C@@]3(C)C[C@H](O)[C@@]12F | Cytochrome P450 2D6 (Homo sapiens) | inactive |
| Cc1ccc(O)c2ncccc12 | Cytochrome P450 2D6 (Homo sapiens) | inactive |
| Cc1c(N(C)CS(=O)(=O)O)c(=O)n(-c2ccccc2)n1C | Cytochrome P450 2D6 (Homo sapiens) | inactive |

---

Test system: HeLa
assay-notes: Primary qHTS to identify gynecologic anti-cancer compounds using libraries of approved drugs and bioactive compounds (AID 1345084); note: nearly all actives have a fitted effect of over 55% in size
study-conditions: Gynecologic cancer cell panel viability, ATPlite luminescence, 48 h; series mostly up to 57.5 µM
Records with an inconclusive call do not appear. The source made the active and inactive calls. Calls come from the whole dose curve; as a rule, active = well fitted cell-killing curve with a large enough effect; inconclusive = small, poorly fitted or top-dose-only effect, or effect the other way; inactive = flat fitted curve, though single readings scatter.
Labels: t (active), f (inactive)

| compound | cat |
| --- | --- |
| CC(C)=CCC1C(=O)N(c2ccccc2)N(c2ccccc2)C1=O | f |
| Oc1c(Cl)cc(Cl)cc1Sc1cc(Cl)cc(Cl)c1O | f |
| CC1(C)O[C@@H]2C[C@H]3[C@@H]4CCC5=CC(=O)CC[C@]5(C)[C@@]4(F)[C@@H](O)C[C@]3(C)[C@]2(C(=O)CCl)O1 | f |
| CC(=O)OCC(=O)[C@@]1(O)[C@H](C)C[C@H]2[C@@H]3CCC4=CC(=O)C=C[C@]4(C)[C@@]3(F)[C@@H](O)C[C@@]21C | f |
| C[C@@H](CN(C)C)CN1c2ccccc2Sc2ccccc21 | f |
| O=C(COc1ccc(Cl)cc1)N1CCN(Cc2ccc3c(c2)OCO3)CC1 | f |
| c1ccc(OCc2ccc(CCCN3CCOCC3)cc2)cc1 | f |
| CN(C)CCCOc1nn(Cc2ccccc2)c2ccccc12 | f |
| CCN(CC)CCNC(=O)COc1ccc(Cl)cc1 | f |
| CC(=O)N/N=C/c1ccc([N+](=O)[O-])o1 | f |
| COc1cccc2c1C(=O)c1c(O)c3c(c(O)c1C2=O)C[C@@](O)(C(C)=O)C[C@@H]3O[C@H]1C[C@H](N)[C@H](O)[C@H](C)O1 | t |
| COc1ccc(/C=C/C(=O)c2ccc(OC)cc2OC)cc1 | f |
| OC[C@H]1O[C@H](O[C@]2(CCl)O[C@H](CCl)[C@@H](O)[C@@H]2O)[C@H](O)[C@@H](O)[C@H]1Cl | f |
| Cc1cc2c(cc1CC(=O)c1sccc1S(=O)(=O)Nc1onc(C)c1Cl)OCO2 | f |
| COc1c2occc2c(OC)c2c(=O)cc(C)oc12 | f |
| OC(CCN1CCCCC1)(c1ccccc1)c1ccccc1 | f |
| CCCCN1CCCC1C(=O)Nc1c(C)cc(C)cc1C (configuration not stated) | f |
| CC/C(=C(/CC)c1ccc(O)cc1)c1ccc(O)cc1 | f |
| O=C1OC2(c3ccc(O)cc3Oc3cc(O)ccc32)c2ccccc21 | f |
| CCCCCCCCCCCCCCCC[N+](C)(C)CC | t |
| CCCCCC=CCC=CCCCCCCCC(=O)OCC | f |
| Cc1cc(N)c2cc(NC(=O)Nc3ccc4nc(C)cc(N)c4c3)ccc2n1 | f |
| CC(Cc1ccccc1)(NC(=O)CN)c1ccccc1 (configuration not stated) | f |
| O=c1c(-c2ccccc2)c1-c1ccccc1 | f |
| Cc1ccc(Nc2c(F)cccc2Cl)c(CC(=O)O)c1 | f |
| CCC(C(=O)OCCN(CC)CC)c1ccccc1 (configuration not stated) | f |
| CCOC(=O)n1ccn(C)c1=S | f |
| C[C@]12CCC(=O)C=C1CC[C@H]1[C@@H]3CC[C@](O)(C(=O)CO)[C@@]3(C)C[C@H](O)[C@@]12F | f |
| Cc1cc(O)c(C(C)C)cc1Cl | f |
| COc1ccc(OC)c(C(O)CNC(=O)CN)c1 (configuration not stated) | f |
| O=C1[C@H]2CCCC[C@H]2C(=O)N1CCCCN1CCN(c2nsc3ccccc23)CC1 | f |
| C[C@]12CC[C@@H]3c4ccc(O)cc4CC[C@H]3[C@@H]1C[C@@H](O)[C@@H]2O | t |
| C[C@]12C=CC(=O)C=C1[C@@H](F)C[C@@H]1[C@@H]2[C@@H](O)C[C@@]2(C)[C@H]1CC[C@]2(O)C(=O)CO | f |
| CC(=O)c1ccc2c(c1)N(CCCN1CCC(CCO)CC1)c1ccccc1S2 | f |
| CCOc1ccc(NC(=O)CC(C)O)cc1 (configuration not stated) | f |
| C[C@@H]1C[C@H]2[C@@H]3C[C@H](F)C4=CC(=O)C(Cl)=C[C@]4(C)[C@@]3(F)[C@@H](O)C[C@]2(C)[C@@]1(O)C(=O)CO | f |
| COC(=O)[C@@H]1CC2=CC(=O)CC[C@]2(C)[C@@]23O[C@@H]2C[C@@]2(C)[C@@H](CC[C@@]24CCC(=O)O4)[C@H]13 | f |
| CCOC(=O)/C=C(C)/C=C/C=C(C)/C=C/c1c(C)cc(OC)c(C)c1C | f |
| CC(C)(C)NC(=O)[C@@H]1CN(Cc2cccnc2)CCN1C[C@@H](O)C[C@@H](Cc1ccccc1)C(=O)N[C@H]1c2ccccc2C[C@H]1O | f |
| CCCC(=O)Nc1ccc(OCC(O)CNC(C)C)c(C(C)=O)c1 (configuration not stated) | f |
| CCOc1ccc(Cc2nccc3cc(OCC)c(OCC)cc23)cc1OCC | f |
| CCN1CCC[C@H]1CNC(=O)c1c(OC)ccc(Br)c1OC | f |

---

System: CP247
assay-notes: qHTS profiling for inhibitors of Plasmodium falciparum proliferation (AID 504749); note: nearly all actives have a fitted effect of over 60% in size
study-conditions: P. falciparum in erythrocytes, SYBR Green DNA, 72 h; series mostly up to 28.7 µM
Inconclusive results are not listed. Activity calls are given as the source filed them. Calls come from the whole dose curve; as a rule, active = well fitted inhibition curve with a large enough effect; inconclusive = small, poorly fitted or top-dose-only effect; inactive = flat fitted curve, though single readings scatter. Numbered stars: 1 amine (or outer) side, 2 acyl side, 3 side chain; on linkers, the order of the positions; unused ones are H or OH. Bridge positions count the residues as written; N and C are the ends. Square brackets hold non-standard residues; d marks the D form. Peptide text beside a SMILES is read from it. I, II: the chains in the order shown. Actinocin(9to1) = Cc1c2oc3c(C)ccc(C(=O)[*:1])c3nc-2c(C(=O)[*:2])c(N)c1=O; NMeV = CN[C@H](C(=O)O)C(C)C; Sar = CNCC(=O)O
Labels: active, inactive

| molecule | cat |
| --- | --- |
| CC[N+](CC)(CCNC(=O)C(=O)NCC[N+](CC)(CC)Cc1ccccc1Cl)Cc1ccccc1Cl | active |
| CCN(CC)CCOC(=O)C(c1ccccc1)C1CCCCC1 (stereo not given) | inactive |
| C#C[C@]1(OC(C)=O)CC[C@H]2[C@@H]3CCC4=C[C@@H](OC(C)=O)CC[C@@H]4[C@H]3CC[C@@]21C | inactive |
| Oc1ccc(Cl)c2cccnc12 | inactive |
| COc1ccc(CN2CCN(C(c3ccc(F)cc3)c3ccc(F)cc3)CC2)c(OC)c1OC | active |
| COc1ccc(C2C(=O)c3ccccc3C2=O)cc1 | inactive |
| CCCCN1CCCC1C(=O)Nc1c(C)cc(C)cc1C (stereo not given) | inactive |
| C[C@]12CC[C@@H]3c4ccc(O)cc4CC[C@H]3[C@@H]1CC[C@@H]2O | inactive |
| O=C(N/N=C/c1ccccc1O)c1ccncc1 | active |
| Cc1c2oc3c(C)ccc(C(=O)N[C@@H]4C(=O)N[C@H](C(C)C)C(=O)N5CCC[C@H]5C(=O)N(C)CC(=O)N(C)[C@@H](C(C)C)C(=O)O[C@@H]4C)c3nc-2c(C(=O)N[C@@H]2C(=O)N[C@H](C(C)C)C(=O)N3CCC[C@H]3C(=O)N(C)CC(=O)N(C)[C@@H](C(C)C)C(=O)O[C@@H]2C)c(N)c1=O (I: T[dV]P[Sar][NMeV] / II: T[dV]P[Sar][NMeV]; ester I:1-I:C, II:1-II:C; linker I:N-II:N via Actinocin(9to1)) | active |
| C1CCc2nnnn2CC1 | inactive |
| CCCCOc1cc(C(=O)NCCN(CC)CC)c2ccccc2n1 | inactive |
| C[C@]12CCC(=O)C=C1CC[C@H]1[C@@H]3CC[C@](O)(C(=O)CO)[C@@]3(C)C[C@H](O)[C@@]12F | inactive |
| Cc1ccnc(NS(=O)(=O)c2ccc(N)cc2)n1 | inactive |
| CCCn1c(=O)[nH]c(=O)c2[nH]cnc21 | inactive |
| C[C@@H]1C(=O)NC2=Nc3cccc(Cl)c3CN21 | inactive |
| COc1cccc2c1C(=O)c1c(O)c3c(c(O)c1C2=O)C[C@@](O)(C(C)=O)C[C@@H]3O[C@H]1C[C@H](N)[C@H](O)[C@H](C)O1 | active |
| CCOc1ccc(Cc2nccc3cc(OCC)c(OCC)cc23)cc1OCC | inactive |
| Cc1ccc(C(=O)C(C)CN2CCCCC2)cc1 (stereo not given) | inactive |
| NCCc1ccn[nH]1 | inactive |
| COC(=O)[C@@H]1CC2=CC(=O)CC[C@]2(C)[C@@]23O[C@@H]2C[C@@]2(C)[C@@H](CC[C@@]24CCC(=O)O4)[C@H]13 | inactive |
| c1ccc(OCc2ccc(CCCN3CCOCC3)cc2)cc1 | inactive |
| OCc1ccccc1O | inactive |
| CN(C)/N=N/c1nc[nH]c1C(N)=O | inactive |
| CCCCCCCCCCCCCCCCOP(=O)([O-])OCC[N+](C)(C)C | inactive |
| O=C1OC(c2ccc(O)cc2)(c2ccc(O)cc2)c2ccccc21 | inactive |
| C=C(CC)C(=O)c1ccc(OCC(=O)O)c(Cl)c1Cl | active |
| Cc1cccc(C)c1NC(=O)CN1CCN(CCCC(c2ccc(F)cc2)c2ccc(F)cc2)CC1 | inactive |
| CCCCCCCCCCCCCCCCCC(=O)OCC(O)CO (stereo not given) | inactive |
| CCCCOc1ccc(C(=O)CCN2CCCCC2)cc1 | inactive |
| CCCCC(CC)CN=C(N)NC(N)=NCCCCCCN=C(N)NC(N)=NCC(CC)CCCC (stereo not given) | active |
| O=C(OCCOCCO)c1ccccc1Nc1cccc(C(F)(F)F)c1 | inactive |
| O=C(COc1ccc(Cl)cc1)N1CCN(Cc2ccc3c(c2)OCO3)CC1 | inactive |
| NCCCC[C@H](N[C@@H](CCc1ccccc1)C(=O)O)C(=O)N1CCC[C@H]1C(=O)O | inactive |
| C=CCc1ccc(O)c(OC)c1 | inactive |
